read-out: Epidermal growth factor receptor (EGFR), EGFR (gene 1956); assay: BSK_hDFCGF_EGFR: BioMAP Diversity Plus: hDFCGF Assay for Epidermal growth factor receptor (EGFR) Biomarker Activity (AID 2283057); settings: primary human foreskin fibroblasts; actives raise or lower the signal
Active and inactive are the calls of the source. How the source made its calls: active means hit-call score of the fitted dose curve at least 0.9, where 1 is the maximum; inactive means score below 0.9.
Write down one outcome, taken from active, inactive

A selection of reference data follows.
COc1nc(C)nc(NC(=O)NS(=O)(=O)c2ccccc2Cl)n1    inactive
C#CCOS(=O)OC1CCCCC1Oc1ccc(C(C)(C)C)cc1 (stereo unspecified)    inactive
CO/C=C(/C(=O)OC)c1ccccc1Oc1cc(Oc2ccccc2C#N)ncn1    inactive
Oc1ccccc1-c1ccccc1    inactive

Dear all, I need the recorded test outcome for O=C(O)c1nc(Cl)ccc1Cl , thank you. inactive

Dear all, I need the recorded test outcome for CCc1nn(C)c(C(=O)NCc2ccc(C(C)(C)C)cc2)c1Cl , thank you. inactive

Dear all, I need the recorded test outcome for CC(C)C1(C)N=C(c2nc3ccccc3cc2C(=O)O)NC1=O (stereo unspecified) , thank you. inactive

Dear all, I need the recorded test outcome for O=C(Nc1ccccc1)Nc1ccnc(Cl)c1 , thank you. active

Dear all, I need the recorded test outcome for CNC(=S)S , thank you. inactive

Dear all, I need the recorded test outcome for COc1nc(NC(C)C)nc(NC(C)C)n1 , thank you. inactive

Dear all, I need the recorded test outcome for CON(C)C(=O)Nc1ccc(Cl)c(Cl)c1 , thank you. inactive

Dear all, I need the recorded test outcome for COc1ccc(C(c2ccc(OC)cc2)C(Cl)(Cl)Cl)cc1 , thank you. inactive

Dear all, I need the recorded test outcome for CC(Oc1ccc(Cl)cc1Cl)C(=O)O (stereo unspecified) , thank you. inactive

Dear all, I need the recorded test outcome for N#CC(CCc1ccc(Cl)cc1)(Cn1cncn1)c1ccccc1 (stereo unspecified) , thank you. inactive

Dear all, I need the recorded test outcome for Fc1ccc(Oc2ccnc3cc(Cl)cc(Cl)c23)cc1 , thank you. inactive

Dear all, I need the recorded test outcome for CC(C)Oc1cc(-n2nc(C(C)(C)C)oc2=O)c(Cl)cc1Cl , thank you. inactive

Dear all, I need the recorded test outcome for C=CCC1=C(C)[C@@H](OC(=O)[C@@H]2[C@@H](C=C(C)C)C2(C)C)CC1=O , thank you. active

====

read-out: CYP3A5 (gene 1577); experiment: LTEA_HepaRG_CYP3A5: Life Technologies and Expression Analysis (LTEA) Assay for CYP3A5 using HepaRG (AID 2283493); conditions: mRNA level, 48 h; actives raise or lower the signal
Active and inactive are the calls of the source. Rule for the calls: active = hit-call score of the fitted dose curve at least 0.9, where 1 is the maximum; inactive = score below 0.9.
PARAMETER_MEASURED: AC50

# annotated cases, reported AC50 shown
N#Cc1cc(Br)c(O)c(Br)c1    9.58 µM (active)
CCNc1nc(Cl)nc(NC(C)C)n1    inactive
C#CCOS(=O)OC1CCCCC1Oc1ccc(C(C)(C)C)cc1 (stereo not drawn)    30.1 µM (active)
CCNc1nc(Cl)nc(NCC)n1    inactive
COP(=S)(OC)Oc1nc(Cl)c(Cl)cc1Cl    inactive
CC1COC(Cn2cncn2)(c2ccc(Oc3ccc(Cl)cc3)cc2Cl)O1 (stereo not drawn)    84.1 µM (active)
Fc1ccc(Oc2ccnc3cc(Cl)cc(Cl)c23)cc1    inactive
Cc1c(F)c(F)c(COC(=O)C2C(/C=C(\Cl)C(F)(F)F)C2(C)C)c(F)c1F (stereo not drawn)    inactive
CN(C)C(=S)SSC(=S)N(C)C    inactive
CCCC1COC(Cn2cncn2)(c2ccc(Cl)cc2Cl)O1 (stereo not drawn)    inactive

Give AC50 for each of the items listed below.
1. C=CCC1=C(C)C(OC(=O)C2C(C=C(C)C)C2(C)C)CC1=O (stereo not drawn)
2. COP(N)(=O)SC (stereo not drawn)
3. CON(C)C(=O)Nc1ccc(Cl)c(Cl)c1

inactive
inactive
inactive
